Provenance of the data: the supplement of paper PMC6555819

The sequences listed here are annotated with their PBM binding z-score.
System: VDR homodimer (NR concentration 270 nM)
Experiment: PBM binding z-score (relative to random genomic background probes); higher = stronger binding; sequences stand for … in GC…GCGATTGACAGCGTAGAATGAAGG
Number only, no unit.

Worked cases, answers included:
| ENTRY_SEQUENCE | PBM binding z-score |
| --- | --- |
| CCTATTAGTTGACCATACGGGCAACCGAAGCTCG | 0.509 |
| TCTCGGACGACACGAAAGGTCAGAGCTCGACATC | 0.805 |
| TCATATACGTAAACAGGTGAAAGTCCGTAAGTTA | 0.357 |
| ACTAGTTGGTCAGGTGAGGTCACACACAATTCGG | 4.61 |
| CTTTACGGGTCACTCCAGGTTATAGCATCGGAGT | 1.88 |

Okay, next one:
Exam item: Could you tell me which PBM binding z-score is on file for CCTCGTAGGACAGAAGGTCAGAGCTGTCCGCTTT ?
Marked response: 0.412

###

Test system: RARg homodimer (NR concentration 270 nM)
Test: PBM binding z-score (relative to random genomic background probes); higher = stronger binding; sequences stand for … in GC…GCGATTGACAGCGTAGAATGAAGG
So basically: PBM binding z-score at 4 or higher? That is t. Lower than 4? That is f.

Here are 3 sequences together with their reported answers.
| ENTRY_SEQUENCE | GROUP_LABEL |
| --- | --- |
| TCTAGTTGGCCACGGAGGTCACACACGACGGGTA | f |
| TCTATTGGTTGATTAGGGCAACCGAAACAGCGGA | f |
| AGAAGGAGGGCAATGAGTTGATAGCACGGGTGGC | f |

Exam item: Does PBM binding z-score meet or surpass 4 for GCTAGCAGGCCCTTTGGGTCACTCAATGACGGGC ?
Marked response: f

Exam item: Does PBM binding z-score meet or surpass 4 for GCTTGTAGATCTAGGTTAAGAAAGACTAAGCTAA ?
Marked response: f

Exam item: Does PBM binding z-score meet or surpass 4 for ACTTACGGGTCAACGCGGTTATAGCACGCGTATA ?
Marked response: t

Exam item: Does PBM binding z-score meet or surpass 4 for ATATGTAGGTTAGCTGGGGTCAGTCAGACTAGGC ?
Marked response: f

Exam item: Does PBM binding z-score meet or surpass 4 for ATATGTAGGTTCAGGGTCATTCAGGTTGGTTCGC ?
Marked response: f

###

Tested on: RARa homodimer (NR concentration 270 nM)
Assay: PBM binding z-score (relative to random genomic background probes); higher = stronger binding; sequences stand for … in GC…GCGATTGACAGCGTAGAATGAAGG
READOUT: PBM binding z-score
Number only, no unit.

Worked cases, answers included:
| ENTRY_SEQUENCE | PBM binding z-score |
| --- | --- |
| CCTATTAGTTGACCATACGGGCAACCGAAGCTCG | 1.26 |
| ATATGTAGGTTAGCTGGGGTGATTCAGACTAGGC | 1.29 |
| CCGAGTAGGTTTTGGGGCATTCAGGCAACGGTGA | 0.947 |
| TCATATAGGTAATACAGGTCAAAGTCGGCATCTA | 2.09 |
| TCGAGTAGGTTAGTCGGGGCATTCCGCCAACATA | -0.691 |

Exam item: Could you tell me which PBM binding z-score is on file for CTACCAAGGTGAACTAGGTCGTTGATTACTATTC ?
Marked response: 0.0789

Exam item: Could you tell me which PBM binding z-score is on file for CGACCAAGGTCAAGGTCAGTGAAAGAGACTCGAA ?
Marked response: 1.42

Exam item: Could you tell me which PBM binding z-score is on file for ATCGAAAGGTCGTGAGGTGAGTAAACAGAAAGGC ?
Marked response: 0.931

Exam item: Could you tell me which PBM binding z-score is on file for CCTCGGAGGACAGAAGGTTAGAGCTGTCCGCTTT ?
Marked response: -1.07

Exam item: Could you tell me which PBM binding z-score is on file for CGCCCAAGGTCAGAGAGGTCAGTGAATGCCGAGT ?
Marked response: 3.01

Exam item: Could you tell me which PBM binding z-score is on file for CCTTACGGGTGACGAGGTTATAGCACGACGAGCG ?
Marked response: 0.128

Exam item: Could you tell me which PBM binding z-score is on file for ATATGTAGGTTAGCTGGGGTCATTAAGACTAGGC ?
Marked response: 1.22

Exam item: Could you tell me which PBM binding z-score is on file for TCTTGTAGATCAGCAGCTTAAGAAAGCTGGCCAA ?
Marked response: -0.736

Exam item: Could you tell me which PBM binding z-score is on file for CCTAGTTGGTCAAGGTCAAACACGCTATAGGTAC ?
Marked response: 2.79

Exam item: Could you tell me which PBM binding z-score is on file for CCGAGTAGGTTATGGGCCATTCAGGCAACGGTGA ?
Marked response: -0.148

Exam item: Could you tell me which PBM binding z-score is on file for CCAGACAGGTGAAAGGTAACTCAGTCTGGTACGC ?
Marked response: 0.208

Exam item: Could you tell me which PBM binding z-score is on file for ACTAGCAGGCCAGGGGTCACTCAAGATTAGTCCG ?
Marked response: 1.68

Exam item: Could you tell me which PBM binding z-score is on file for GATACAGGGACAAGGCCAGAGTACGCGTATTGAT ?
Marked response: -0.566
